# method_summary: Apical-to-basal transwell transport across MDCK II cell monolayer
# condition_notes: dog, MDCK, Permeability ± SD, M6G 100 µg/ml alone; MDCK II
readout_name: Papp at 100 min, 100 µg/ml (×10⁻⁶ cm/s)
Form entry: value (×10⁻⁶ cm/s) — number only.

Q) Look up Papp at 100 min, 100 µg/ml for this molecule: CN1CC[C@]23c4c5ccc(O)c4O[C@H]2[C@@H](O[C@@H]2O[C@H](C(=O)O)[C@@H](O)[C@H](O)[C@H]2O)C=C[C@H]3[C@H]1C5 [M6G, Morphine-6-glucuronide]
A) 2.92

---

# Test system: P-glycoprotein (PGP)
# method_summary: Apical-to-basal transwell transport across MDCK II cell monolayer
# condition_notes: dog, MDCK, M6G permeability in the presence of cyclosporine, MDCK II cells, cyclosporine (10 µM), PGP inhibitor
readout_name: Papp at 100 min (×10⁻⁶ cm/s)
Enter your answer as a number in ×10⁻⁶ cm/s; do not include the unit.

Q) Fill in the blank: the reported Papp at 100 min of CN1CC[C@]23c4c5ccc(O)c4O[C@H]2[C@@H](O[C@@H]2O[C@H](C(=O)O)[C@@H](O)[C@H](O)[C@H]2O)C=C[C@H]3[C@H]1C5 [M6G, Morphine-6-glucuronide] is ____.
A) 3.16

---

# method_summary: Apical-to-basal transwell transport across MDCK II cell monolayer
# condition_notes: dog, MDCK, Permeability, MDCK II cells, A→B, 100 min; M6G 100 µg/ml, sucrose 8,000,000 DPM/ml; N=4
readout_name: Papp at 100 min
Remember to put the unit after the number in your answer.

Q) Quick one: Papp at 100 min for CN1CC[C@]23c4c5ccc(O)c4O[C@H]2[C@@H](O[C@@H]2O[C@H](C(=O)O)[C@@H](O)[C@H](O)[C@H]2O)C=C[C@H]3[C@H]1C5 [M6G, Morphine-6-glucuronide] ?
A) 2.94 ×10⁻⁶ cm/s
